- Test system: BDF1 mice, P388 leukemia ip, median survival T/C
- Procedure Text: NCI In Vivo Anticancer Drug Screen. Data for tumor model P388 Leukemia (intraperitoneal) in B6D2F1 (BDF1) mice
- Condition Set: endpoint: median survival time; dose: 100.0 mg/kg/injection; schedule: Q04DX002 (ip); vehicle: saline with Tween-80; higher = longer survival
Inconclusive results and toxic doses are left out.
Exercise: state measured T/C for each of the compounds provided.

Illustrative cases are given below, each with its answer.
| Compound | Reported Measurement |
| --- | --- |
| CC1C2CCCC1(OC(=O)c1cc([N+](=O)[O-])cc([N+](=O)[O-])c1)C2 (centres undefined) | 101 % of control |
| COC(=O)c1ccc(N)c(C(Sc2ccccc2)c2ccccc2)c1 (centres undefined) | 90 % of control |
| N#Cc1ccc(N)c(CSc2ccccc2)c1 | 90 % of control |

Turning now to a further record.
Field request: T/C | item: CCC(C)(CCC(=O)O)c1ccccc1 (centres undefined)
97 % of control
